assay.protocol: PK study in ICR mice
Assay type: in vivo, mouse
test.context: both sexes, mouse, plasma, route and dose not given, read-out: AUC
measured.quantity: log10 AUC (log10 of the value in ng·h/mL)
Note: values are log10 of AUC expressed in ng·h/mL.

A selection of reference data follows.
>>> print(df.to_string())
                                   compound  measured_quantity  result_number
0  O=C(Nc1cccc2c1nc1n2CCOC1)c1ccc(NS(=O)(=O)CCO)cc1N1CCC(=C(F)F)CC1          log10 AUC           4.09
1  O=C(Nc1cccc2c1cc1n2CCC(F)(F)C1O)c1ccc(NS(=O)(=O)CCO)cc1N1CCC2(CC1)CC2 (single isomer, unassigned) [Compound 384-P1]          log10 AUC           3.11

Lookup: What value of log10 AUC has been reported for the following compound? CC1(C)Cn2c(cc3c(NC(=O)c4ccc(NS(=O)(=O)CCO)cc4N4CCC5(CC4)CC5)ccc(C#N)c32)CO1
Found: 4.71

Lookup: Suppose we examine the compound N#Cc1ccc(NC(=O)c2ccc(NS(=O)(=O)CCO)cc2N2CCC3(CC2)CC3)c2cc3n(c12)CCOC3 ; what log10 AUC value has been reported?
Found: 4.10

Lookup: Fill in the blank: the reported log10 AUC of O=C(Nc1cccc2c1cc1n2CCC(F)(F)C1)c1ccc(NS(=O)(=O)CCO)cc1N1CCC(=C(F)F)CC1 is ____.
Found: 4.42

Lookup: Given the compound CCOc1ccc(NC(=O)c2ccc(NS(=O)(=O)CCO)cc2N2CCC3(CC2)CC3)c2cc3n(c12)CC(C)(C)OC3 , what is its reported log10 AUC?
Found: 5.00

Lookup: Entry under review: COc1ccc(NC(=O)c2ccc(NS(=O)(=O)CCO)cc2N2CCC3(CC2)CC3)c2cc3n(c12)CC(C)(C)OC3 . Reported log10 AUC?
Found: 4.85

----------
// reported pIC50 for each item listed
system.tested: KIF18A (Homo sapiens (Human), UniProt Q8NI77)
Sequence (Q8NI77 whole entry): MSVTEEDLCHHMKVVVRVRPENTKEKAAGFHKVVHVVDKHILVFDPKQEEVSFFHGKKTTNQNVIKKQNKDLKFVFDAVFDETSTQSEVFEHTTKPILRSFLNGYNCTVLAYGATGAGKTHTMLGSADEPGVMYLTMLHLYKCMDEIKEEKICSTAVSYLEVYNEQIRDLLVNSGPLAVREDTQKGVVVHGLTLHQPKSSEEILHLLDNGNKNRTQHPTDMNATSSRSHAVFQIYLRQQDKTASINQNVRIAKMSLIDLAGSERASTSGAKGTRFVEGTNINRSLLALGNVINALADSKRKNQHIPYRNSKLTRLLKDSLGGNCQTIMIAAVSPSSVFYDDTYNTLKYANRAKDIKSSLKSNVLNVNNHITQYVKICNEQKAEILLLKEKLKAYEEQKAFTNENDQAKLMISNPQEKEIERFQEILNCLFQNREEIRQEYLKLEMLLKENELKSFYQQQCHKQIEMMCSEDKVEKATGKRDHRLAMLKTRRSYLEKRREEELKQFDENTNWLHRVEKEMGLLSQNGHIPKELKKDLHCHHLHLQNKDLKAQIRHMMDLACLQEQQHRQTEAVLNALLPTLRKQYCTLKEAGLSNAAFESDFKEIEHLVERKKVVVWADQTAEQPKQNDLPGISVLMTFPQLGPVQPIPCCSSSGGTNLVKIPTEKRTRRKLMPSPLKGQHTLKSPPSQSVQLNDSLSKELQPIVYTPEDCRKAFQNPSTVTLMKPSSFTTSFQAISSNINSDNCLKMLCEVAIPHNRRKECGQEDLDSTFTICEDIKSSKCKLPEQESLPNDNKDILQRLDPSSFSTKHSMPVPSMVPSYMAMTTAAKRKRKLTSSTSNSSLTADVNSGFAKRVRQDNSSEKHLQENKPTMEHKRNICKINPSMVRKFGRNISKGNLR
Sequence (P02550 whole entry partner): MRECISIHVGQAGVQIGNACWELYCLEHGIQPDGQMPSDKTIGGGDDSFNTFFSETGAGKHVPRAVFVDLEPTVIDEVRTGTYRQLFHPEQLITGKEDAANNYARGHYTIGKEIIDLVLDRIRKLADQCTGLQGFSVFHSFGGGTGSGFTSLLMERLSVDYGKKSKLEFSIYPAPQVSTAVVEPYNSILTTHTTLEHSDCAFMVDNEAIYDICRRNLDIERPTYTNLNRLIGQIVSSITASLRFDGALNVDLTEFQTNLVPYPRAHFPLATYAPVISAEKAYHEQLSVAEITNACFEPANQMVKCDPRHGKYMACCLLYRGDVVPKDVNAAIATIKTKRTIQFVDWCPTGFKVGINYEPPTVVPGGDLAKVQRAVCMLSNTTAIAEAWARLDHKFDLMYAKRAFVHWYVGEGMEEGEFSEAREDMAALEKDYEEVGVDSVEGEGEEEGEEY
Sequence (P02554 whole entry partner): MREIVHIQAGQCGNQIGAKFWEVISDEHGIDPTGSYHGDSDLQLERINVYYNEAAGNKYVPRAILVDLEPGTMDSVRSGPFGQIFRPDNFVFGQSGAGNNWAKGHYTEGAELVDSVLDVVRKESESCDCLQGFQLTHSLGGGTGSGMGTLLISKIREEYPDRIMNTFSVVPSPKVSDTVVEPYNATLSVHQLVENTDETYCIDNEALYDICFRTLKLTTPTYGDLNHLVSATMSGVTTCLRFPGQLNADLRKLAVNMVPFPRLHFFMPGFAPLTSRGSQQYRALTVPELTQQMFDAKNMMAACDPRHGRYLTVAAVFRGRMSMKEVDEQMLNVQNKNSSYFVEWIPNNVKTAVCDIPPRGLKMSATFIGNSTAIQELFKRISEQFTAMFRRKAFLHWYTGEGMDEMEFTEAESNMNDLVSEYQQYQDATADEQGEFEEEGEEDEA
assay.protocol: KIF18A ATPase activity under tubulin stimulation (ADP-Glo assay)
Assay type: biochemical
test.context: KIF18A 30 nM, ATP 150 μM, pig microtubules
Description: This experiment assesses the inhibitory effect of the compounds of the present disclosure on the KIF18A target according to the IC50 values by measuring the KIF18A ATPase activity under tubulin stimulation with the presence of the compounds. • 1. […] Luminescence values were measured using the EnVision Xcite Multilabel Reader (PerkinElmer, 2105-0020).
pIC50: −log10 of the molar value.

Example molecules with recorded pIC50:
>>> df
                                   molecule  measured_quantity        result
0  O=C(Nc1cccc2c1CCN2CC1CC1)c1ccc(NS(=O)(=O)CCO)c2c1OCCO2              pIC50        < 5.30
1  O=C(Nc1ccnc(N2CCC(F)(F)CC2)c1)c1ccc(NS(=O)(=O)CCO)cc1OC1CCC(F)(F)CC1              pIC50  5.30 to 6.30
2  CCS(=O)(=O)Nc1ccc(C(=O)Nc2cccc3c2cc2n3CCCC2O)c(N2CCC3(CC2)CC3)c1 (single isomer, unassigned) [Example 373-P1]              pIC50  6.30 to 7.30
3  O=C(Nc1ccnc(N2CCC(F)(F)CC2)c1)c1ccc(NS(=O)(=O)CCO)cc1OC1CCCCC1              pIC50  6.30 to 7.30

Lookup: Which pIC50 is listed for CC1(C)Cn2c(cc3c(NC(=O)c4ccc(NS(=O)(=O)CCO)cc4N4CCC(=C(F)F)CC4)ccc(OC(F)(F)F)c32)CO1 ?
Found: 6.30 to 7.30

Lookup: # pIC50 lookup, item Cc1cc(NC(=O)c2ccc(NS(=O)(=O)CCO)cc2N2CCC(=C(F)F)CC2)c2cc3n(c2c1)CC(C)(C)OC3
Found: 6.30 to 7.30

Lookup: For the molecule O=C(Nc1cnc2n1CCCC2)c1ccc(NS(=O)(=O)CCO)cc1N1CCC2(CC1)CC2 , what pIC50 is on record?
Found: < 5.30

Lookup: Fill blank: measured pIC50 of the molecule O=C(Nc1cccc2c1cc1n2CCC(F)(F)C1O)c1ccc(NS(=O)(=O)CCO)cc1N1CCC2(CC1)CC2 (centres unmarked) [Compound 384] is ____.
Found: 6.30 to 7.30

Lookup: So what does the record say about pIC50 for O=C(Nc1cc(F)cc2c1nc1n2CCOC1)c1ccc(NS(=O)(=O)CCO)cc1N1CCC2(CC1)CC2 ?
Found: ≥ 7.30

Lookup: Record request: pIC50 value, item COC1c2cc3c(NC(=O)c4ccc(NS(=O)(=O)CCO)cc4N4CCC5(CC4)CC5)ccc(C#N)c3n2CCC1(F)F (centres unmarked)
Found: 6.30 to 7.30

Lookup: I am curious: what pIC50 value has been reported for O=C(Nc1cccc2c1cc1n2CCC1)c1ccc(NS(=O)(=O)CCO)cc1N1CCC2(CC1)CC2 ?
Found: ≥ 7.30

Lookup: For the molecule shown here, CC1Cn2c(cc3c(NC(=O)c4ccc(NS(=O)(=O)CCO)cc4N4CCC5(CC4)CC5)cccc32)C(C)O1 (centres unmarked) [Example 312] , give the reported pIC50.
Found: 6.30 to 7.30

Lookup: Quick one: pIC50 for O=C(Nc1cccc2c1cc1n2CCC(F)(F)C1O)c1ccc(NS(=O)(=O)CCO)cc1N1CCC2(CC1)CC2 (single isomer, unassigned) [Compound 384-P1] ?
Found: ≥ 7.30

Lookup: Can you look up the measured pIC50 of CNc1cc(NS(=O)(=O)CCO)cc(N2CCC3(CC2)CC3)c1C(=O)Nc1cc(C)nc(N2CCC(F)(F)CC2)n1 for me?
Found: 6.30 to 7.30

----------
system.tested: KIF18A (Homo sapiens (Human))
measured.quantity: IC50

                                   compound        result
0  N#Cc1ccc(NC(=O)c2ccc(NS(=O)(=O)CCO)cc2N2CCC3(CC2)CC3)c2cc3n(c12)CCC(F)(F)C3 [Example 379]       ≤ 50 nM
1  CC1(C)Cn2c(cc3c(NC(=O)c4ccc(NS(=O)(=O)CCO)nc4N4CCC5(CC4)CC5)cccc32)CO1 [Example 453]  50 to 500 nM

Lookup: Quick check: IC50 on KIF18A (Homo sapiens (Human)), item CC1(O)CCCn2c1cc1c(NC(=O)c3ccc(NS(=O)(=O)CCO)cc3N3CCC4(CC3)CC4)cccc12 (stereo not shown) [Example 372] ?
Found: ≤ 50 nM

Lookup: Give recorded IC50 with KIF18A (Homo sapiens (Human)) for the following compound: COc1ccc(C(=O)Nc2ccc(NS(=O)(=O)CCO)cc2N2CCC3(CC2)CC3)c2cc3n(c12)CC(C)(C)OC3 [Example 565]
Found: 50 to 500 nM

----------
Read-out record for KIF18A (Homo sapiens (Human), UniProt Q8NI77): IC50

Lookup: Request body: readout IC50, system KIF18A (Homo sapiens (Human), UniProt Q8NI77), query COC1c2cc3c(NC(=O)c4ccc(NS(=O)(=O)CCO)cc4N4CCC5(CC4)CC5)cccc3n2CCC1(F)F (single isomer, unassigned) [Example 340-P2] . Return the value.
Found: ≤ 50 nM

----------
Tested on: HCC1954 cells
assay.protocol: HCC1954 cell proliferation (Cell Titer-Glo, 6 days)
Type: cell-based
test.context: Homo sapiens, HCC1954, 144 h, KIF18A-sensitive tumor cells
pIC50: −log10 of the molar value.
measured.quantity: pIC50

>>> print(df.to_string())
                                   molecule  measured_quantity        result
0  O=C(Nc1ccc(F)c2c1ccn2CC1CC1)c1ccc(NS(=O)(=O)CCO)cc1N1CCC2(CC1)CC2              pIC50  6.30 to 8.00
1  COC1c2cc3c(NC(=O)c4ccc(NS(=O)(=O)CCO)cc4N4CCC5(CC4)CC5)cccc3n2CCC1(F)F (stereo not shown)              pIC50  6.30 to 8.00
2  CC1(C)Cc2nc3c(NC(=O)c4ccc(NS(=O)(=O)CCO)cc4N4CCC5(CC4)CC5)cccc3n2C1              pIC50  6.30 to 8.00
3  O=C(Nc1cccc2c1cc1n2CCOC1)c1ccc(NS(=O)(=O)CCO)cc1N1CCC2(CC1)CC2              pIC50        ≥ 8.00
4  CN1CCn2c(cc3c(NC(=O)c4ccc(NS(=O)(=O)CCO)cc4N4CCC5(CC4)CC5)cccc32)C1              pIC50  6.30 to 8.00
5  Cc1cc(NC(=O)c2c(N)cc(NS(=O)(=O)CCO)cc2N2CCC3(CC2)CC3)nc(N2CCC(F)(F)CC2)n1              pIC50        ≥ 8.00

Lookup: Any idea what its pIC50 is? The molecule is O=C(Nc1ccnc2c1cc1n2CCOC1)c1ccc(NS(=O)(=O)CCO)cc1N1CCC2(CC1)CC2
Found: 6.30 to 8.00
